// provenance: ChEMBL document CHEMBL4251608

- assay.procedure: Cytotoxicity against HEL cells assessed as alteration in cell morphology after 3 days by microscopic method
- Type: cell-based
- condition.description: human
value.type: MCC at 72 h

sample_smiles=Cc1cn([C@H]2C[C@H](O)[C@@H](CO)O2)c(=O)c[n+]1[O-] value_type="MCC at 72 h" reported="169 µM"
sample_smiles=Nc1ccn(C[C@@H](CO)OCP(=O)(O)O)c(=O)n1 value_type="MCC at 72 h" reported="> 358 µM"
sample_smiles=Nc1nc2c(ncn2COCCO)c(=O)[nH]1 value_type="MCC at 72 h" reported="> 444 µM"

--- query ---
Value of MCC at 72 h reported for the compound `O=c1[nH]c(=O)n([C@H]2C[C@H](O)[C@@H](CO)O2)cc1/C=C/Br` is > 300 µM
